- measured on: T1, recombinant CD3D&E protein (human CD3-his tag) (human, UniProt P04234 22-105; P07766 23-126, limits assumed)
- T1 construct: Analyte in Biacore; also called CD3D&E-His; CD3d&ε-His
- procedure details: SPR Biacore, Ab captured on Protein A
pKd: −log10 of the molar value.

| binder | pKd |
| --- | --- |
| 155A9B1 chimeric mAb (antibody, V domains shown, Chimeric mAb) VH: QVQLKESGPGLVQPSQTLSLTCTVSGFSLTSYNVHWVRQPPGKGLEWMGRVRYNGDTSYNSALKSRLSISRDTSKNQAFLKMNSLQIDDTGTYYCTRGPYGGSSEPLFDYWGQGVMVTVSS VL: DIKMTQSPSFLSASVGDRVTINCKASQNINKYLNWFQQKLGEAPRLLIYTTNNLQTGIPSRFSGSGSGTDFTLTISSLQPEDVATYFCLQHNSGYTFGAGTKLELK | 7.44 |
| SP34 monoclonal antibody (antibody, human IgG1, lambda, N297A, V domains shown, also called SP34 (Biointron, B6762)) VH: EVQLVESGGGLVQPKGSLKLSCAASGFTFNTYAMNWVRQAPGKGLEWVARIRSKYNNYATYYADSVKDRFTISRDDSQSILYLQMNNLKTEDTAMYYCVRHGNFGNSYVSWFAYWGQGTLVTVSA VL: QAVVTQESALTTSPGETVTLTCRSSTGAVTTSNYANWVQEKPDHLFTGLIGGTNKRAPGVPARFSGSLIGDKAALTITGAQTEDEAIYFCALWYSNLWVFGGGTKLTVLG | 8.16 |
| 153A6B1 chimeric mAb (antibody, V domains shown, Chimeric mAb of the hybridoma clone; also called 153A6B1C8) VH: QVQLKESGPGLVQPSQTLSLTCTVSGFSLTSYNIHWVRQPPGKGLEWMGRIRYNGDTSYNSALKSRLSISRDTSKNQVFLKMSSLQTDDTGTYYCTRGPYGGSREPLFDYWGQGVMVTVSS VL: DIKMTQSPSFLSAAVGDRVTINCKTSQNINKYLNWFQQKLGAAPKLLIYTTNNLQTGIPSRFSGSGSGTDFTLTISSLQPEDVATYFCLQHGSGYTFGAGTKLELK | 8.06 |
| 192A7B9 chimeric mAb (antibody, V domains shown, Chimeric mAb) VH: QVQLKESGPGLVQPSQTLSLNCTVSGFSLTSYNVHWVRQPPGKGLEWMGRMRYNGDTSYNSALKSRLSISRDTSKNQVFLKMNSLQTDDTGTYYCTRGPRGGYYSALFDYWGQGVMVTVSS VL: DIQMTQSPSFLSASVGDRVTINCKASQNINRYLNWYQQKLGDAPKVLISIANSLQTGIPSRFSGSGSGTDFTLTISSLQPEDVATYFCLQHNSWYTFGAGTKLELK | 8.20 |
